Reference source: patent US7659240B2

# System: mucin immobilized to PC IAM particles
# procedure_summary: pH and mucin layer thickness dependence of partition ratio on MIC columns (1:2 and 2:1)
# particulars: column 2:1 mucin to PC IAM, 0.36 μm mucin layer; mobile phase pH 7
recorded_metric: (2:1) k′ (pH 7)

Reference set, count: 6
CC(=O)Oc1ccccc1C(=O)O    20.67
CC(C)NCC(O)COc1cccc2ccccc12 (stereo not drawn)    99.00
CC(=O)Nc1ccc(O)cc1    62.33
Cn1c(=O)c2c(ncn2C)n(C)c1=O    39.00
Cc1cc(=O)n(-c2ccccc2)n1C [Antipyrine]    40.67
CC(C)(C)NCC(O)c1cc(O)cc(O)c1 (stereo not drawn)    35.67

Lab note: measured (2:1) k′ (pH 7) of CC(CCc1ccccc1)NCC(O)c1ccc(O)c(C(N)=O)c1 (stereo not drawn) was 132.33

According to the records, this molecule "NCC(=O)O" displays (2:1) k′ (pH 7) of none

The molecule listed as COc1ccc(Cl)cc1C(=O)NCCc1ccc(S(=O)(=O)NC(=O)NC2CCCCC2)cc1 [glybenclamide] shows (2:1) k′ (pH 7) equal to 34.00

The molecule identified as COCCc1ccc(OCC(O)CNC(C)C)cc1 (stereo not drawn) registered its (2:1) k′ (pH 7) at 35.67

Item: "O=C(CCCN1CCC(O)(c2ccc(Cl)cc2)CC1)c1ccc(F)cc1" | (2:1) k′ (pH 7): 95.67
